experiment: Permeability from apical to basolateral side of human Caco2 cells; format: ADME, cell-based; conditions: Caco-2, read-out: permeability
Reported metric: Papp A→B (×10⁻⁶ cm/s)
Unit ×10⁻⁶ cm/s implied. Number only.

Ask: Which Papp A→B reading was recorded for the compound Nc1ncccc1C(=O)c1cccc(N2CCCNCC2)n1 ?
Result: 9

###

molecular target: Serine/threonine-protein kinase PLK1 (Homo sapiens)
Sequence (P53350 whole entry): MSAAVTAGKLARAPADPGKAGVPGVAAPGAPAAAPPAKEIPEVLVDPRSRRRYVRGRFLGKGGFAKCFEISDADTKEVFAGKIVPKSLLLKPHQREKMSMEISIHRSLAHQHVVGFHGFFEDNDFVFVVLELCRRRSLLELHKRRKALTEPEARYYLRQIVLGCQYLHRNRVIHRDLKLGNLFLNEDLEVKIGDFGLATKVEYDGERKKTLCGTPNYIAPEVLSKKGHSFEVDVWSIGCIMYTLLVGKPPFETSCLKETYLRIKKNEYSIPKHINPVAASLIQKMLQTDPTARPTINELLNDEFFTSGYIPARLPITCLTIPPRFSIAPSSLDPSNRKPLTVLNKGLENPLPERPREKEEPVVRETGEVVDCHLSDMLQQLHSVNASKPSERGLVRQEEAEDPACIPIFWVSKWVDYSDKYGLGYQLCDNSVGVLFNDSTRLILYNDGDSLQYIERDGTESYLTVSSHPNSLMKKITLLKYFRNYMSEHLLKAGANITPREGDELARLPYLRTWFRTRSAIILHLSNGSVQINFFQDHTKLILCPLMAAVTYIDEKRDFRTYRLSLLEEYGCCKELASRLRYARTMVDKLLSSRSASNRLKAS
Reported metric: Ki

Ask: Provide the documented Ki with Serine/threonine-protein kinase PLK1 (Homo sapiens) as the system for CC(C)C[C@H]1CN(c2ccc(C(F)(F)F)c(C(=O)c3cccnc3N)n2)CCN1
Result: > 4 µM

###

molecular target: Rho-associated protein kinase 1 (Homo sapiens, UniProt Q13464)
Sequence (Q13464 whole entry): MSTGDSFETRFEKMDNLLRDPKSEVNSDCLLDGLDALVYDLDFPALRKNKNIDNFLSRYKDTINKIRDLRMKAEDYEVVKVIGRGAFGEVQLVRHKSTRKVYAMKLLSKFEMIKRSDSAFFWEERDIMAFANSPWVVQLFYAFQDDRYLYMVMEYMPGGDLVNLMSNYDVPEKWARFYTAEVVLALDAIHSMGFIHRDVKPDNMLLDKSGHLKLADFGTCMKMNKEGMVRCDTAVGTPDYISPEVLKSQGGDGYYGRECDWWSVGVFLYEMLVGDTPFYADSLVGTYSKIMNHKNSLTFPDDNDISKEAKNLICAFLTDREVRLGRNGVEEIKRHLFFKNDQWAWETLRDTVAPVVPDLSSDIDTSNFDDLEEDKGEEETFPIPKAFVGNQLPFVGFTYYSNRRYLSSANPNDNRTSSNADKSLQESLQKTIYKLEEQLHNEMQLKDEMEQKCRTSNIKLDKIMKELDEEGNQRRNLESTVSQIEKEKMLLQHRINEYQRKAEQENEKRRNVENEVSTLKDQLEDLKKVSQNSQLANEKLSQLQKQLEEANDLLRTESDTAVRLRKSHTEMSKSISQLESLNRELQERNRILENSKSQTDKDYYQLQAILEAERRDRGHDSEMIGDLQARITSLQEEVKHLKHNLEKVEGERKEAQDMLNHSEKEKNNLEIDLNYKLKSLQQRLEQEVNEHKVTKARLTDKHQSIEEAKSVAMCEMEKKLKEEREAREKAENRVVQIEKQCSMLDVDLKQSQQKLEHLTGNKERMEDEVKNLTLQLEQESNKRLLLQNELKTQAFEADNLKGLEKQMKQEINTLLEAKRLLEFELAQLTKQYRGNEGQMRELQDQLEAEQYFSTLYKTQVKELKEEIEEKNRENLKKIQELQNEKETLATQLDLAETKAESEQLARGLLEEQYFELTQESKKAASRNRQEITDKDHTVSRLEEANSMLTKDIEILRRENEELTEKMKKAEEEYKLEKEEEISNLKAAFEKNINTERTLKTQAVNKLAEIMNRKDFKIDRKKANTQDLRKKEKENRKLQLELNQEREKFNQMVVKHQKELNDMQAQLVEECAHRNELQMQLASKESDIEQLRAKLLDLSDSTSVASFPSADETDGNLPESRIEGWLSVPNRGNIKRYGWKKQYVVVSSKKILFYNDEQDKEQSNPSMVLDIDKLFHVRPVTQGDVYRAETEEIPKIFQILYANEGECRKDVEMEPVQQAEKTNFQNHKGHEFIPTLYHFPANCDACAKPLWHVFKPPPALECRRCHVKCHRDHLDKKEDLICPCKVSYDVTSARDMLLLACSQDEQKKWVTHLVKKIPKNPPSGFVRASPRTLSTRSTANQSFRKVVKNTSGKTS
Reported metric: Ki

Ask: Value lookup for Ki; key = CC(C)C[C@H]1CN(c2ccc(C(F)(F)F)c(C(=O)c3cccnc3N)n2)CCN1
Result: > 4 µM
